# Test system: Rattus norvegicus
# measurement notes: Cmax in SPF Rattus norvegicus (rat) at 100 mg/kg, po
# Assay type: ADME, organism-based
# Set-up: dose 100 mg/kg, route oral
# conditions used: in vivo
Friendly reminder: Cmax below 40 ng/mL is true, at or above is false.

Ask | Lab log: compare recorded Cmax with 40 ng/mL; is it strictly lower for COc1ccc2cc3[n+](cc2c1OC1O[C@H](CO)[C@@H](O)[C@H](O)[C@H]1O)CCc1cc2c(cc1-3)OCO2 (stereo partly specified) ?
Reply | false

Continuing:
Ask | Lab log: compare recorded Cmax with 40 ng/mL; is it strictly lower for "CCCCCCCCCCCCOc1c(OC)ccc2cc3[n+](cc12)CCc1cc2c(cc1-3)OCO2" ?
Reply | true

* * *

# Test system: Rattus norvegicus
# measurement notes: Tmax in SPF Rattus norvegicus (rat) at 100 mg/kg, po
# Type: ADME, organism-based
# Parameters: dose 100 mg/kg, route oral
# conditions used: in vivo
Readings of Tmax for the listed compounds

Known Tmax results, listed for orientation:
Ask | Please give measured Tmax of the following entry: "COc1ccc2cc3[n+](cc2c1OC)CCc1cc2c(cc1-3)OCO2"
Reply | 2 h

Ask | Please give measured Tmax of the following entry: "CCCCCCCCCCCCOc1c(OC)ccc2cc3[n+](cc12)CCc1cc2c(cc1-3)OCO2"
Reply | 3.5 h

Ask | Please give measured Tmax of the following entry: "COc1ccc2cc3[n+](cc2c1OC[C@H](O)[C@H](O)CO)CCc1cc2c(cc1-3)OCO2"
Reply | 3 h

Ask | Please give measured Tmax of the following entry: COc1ccc2cc3[n+](cc2c1OC1O[C@H](CO)[C@@H](O)[C@H](O)[C@H]1O)CCc1cc2c(cc1-3)OCO2 (stereo partly specified)
Reply | 3 h

Ask | Please give measured Tmax of the following entry: COc1ccc2cc3[n+](cc2c1OC1OC[C@@H](O)[C@@H](O)[C@@H]1O)CCc1cc2c(cc1-3)OCO2 (stereo partly specified)
Reply | 3 h

Shift focus to the following entry.
Ask | Please give measured Tmax of the following entry: "CCCCCCCCOc1c(OC)ccc2cc3[n+](cc12)CCc1cc2c(cc1-3)OCO2"
Reply | 3 h

* * *

# Tested on: Rattus norvegicus
# measurement notes: AUC in SPF Rattus norvegicus (rat) at 100 mg/kg, po
# Type: ADME, organism-based, Plasma
# Set-up: dose 100 mg/kg, route oral
# conditions used: in vivo
Cut-off 200 ng·h/mL on AUC, inclusive. At or above means T; below means F.

Ask | Is the recorded value of AUC equal to or greater than 200 ng·h/mL for this molecule? CCCCCCCCOc1c(OC)ccc2cc3[n+](cc12)CCc1cc2c(cc1-3)OCO2 [9-O-OCTYL-BERBERINE]
Reply | F

Ask | Is the recorded value of AUC equal to or greater than 200 ng·h/mL for this molecule? CCCCCCCCCCCCOc1c(OC)ccc2cc3[n+](cc12)CCc1cc2c(cc1-3)OCO2 [9-O-DODECYL-BERBERINE]
Reply | F

Ask | Is the recorded value of AUC equal to or greater than 200 ng·h/mL for this molecule? COc1ccc2cc3[n+](cc2c1OC)CCc1cc2c(cc1-3)OCO2 [BERBERINE]
Reply | F

Ask | Is the recorded value of AUC equal to or greater than 200 ng·h/mL for this molecule? COc1ccc2cc3[n+](cc2c1OC[C@H](O)[C@H](O)CO)CCc1cc2c(cc1-3)OCO2 [9-O-ERYTHROL-BERBERINE]
Reply | F

Continuing:
Ask | Is the recorded value of AUC equal to or greater than 200 ng·h/mL for this molecule? COc1ccc2cc3[n+](cc2c1OC1O[C@H](CO)[C@@H](O)[C@H](O)[C@H]1O)CCc1cc2c(cc1-3)OCO2 (stereo partly specified) [9-O-GLUCOSYL-BERBERINE]
Reply | T
